# System: GDP-bound KRAS protein (aa 1-169), containing both G12D and C118A amino acid substitutions (Homo sapiens (Human), UniProt P01116, C118A/G12D)
# Sequence (P01116 other isoform, or with tags, fused parts or gaps G12D/C118A): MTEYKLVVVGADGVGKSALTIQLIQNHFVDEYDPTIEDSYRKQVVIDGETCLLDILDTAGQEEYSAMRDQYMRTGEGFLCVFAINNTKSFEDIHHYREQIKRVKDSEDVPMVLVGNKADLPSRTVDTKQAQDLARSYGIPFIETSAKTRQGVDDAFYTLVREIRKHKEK
# Assay Name: KRAS G12D Coupled Nucleotide Exchange Assay
# Assay type: biochemical
# Test Settings: read-out: KRAS G12D Coupled Exchange IC50
pIC50: −log10 of the molar value.
Measurement Kind: pIC50

Answered cases to consult:
Compound	Reported
Fc1c2ncc3c(nc(OC[C@@]45CCCN4C[C@H](F)C5)nc13)N1CCOC[C@@H](COCCCCc3c(Cl)cc4[nH]ncc4c3-2)C1 (single isomer, unassigned) [Example 137]	8.70
CN1C[C@H](F)C[C@H]1COc1nc2c3cnc(c(F)c3n1)-c1c(c(Cl)cc3[nH]ncc13)CCCOC(=O)O[C@]1(C)COCCN2C1 [Example 318]	8.52
CN1CCC[C@H]1COc1nc2c3cnc(c(F)c3n1)-c1c(c(Cl)cc3[nH]ncc13)CCCOC(=O)O[C@@H]1CCCCN2C1 [Example 202]	8.52

[a] Cc1cc2[nH]ncc2c2c1CC/C=C\CO[C@@H]1CCCN(C1)c1nc(OC[C@@]34CCCN3C[C@H](F)C4)nc3c(F)c-2ncc13 [Example 133]
[b] CN1CCC[C@H]1COc1nc2c3cnc(c(F)c3n1)-c1c(c(Cl)cc3[nH]ncc13)CCCOC(=O)O[C@@]1(CF)COCCN2C1 [Example 337]
Query: Compare a and b and name the one whose reported pIC50 is smaller. Return value: the label identifying the chosen record.
Reply: b

---

# System: His-tagged KRAS G12D protein (Homo sapiens (Human), UniProt P01116, G12D)
# Sequence (P01116 other isoform, or with tags, fused parts or gaps G12D): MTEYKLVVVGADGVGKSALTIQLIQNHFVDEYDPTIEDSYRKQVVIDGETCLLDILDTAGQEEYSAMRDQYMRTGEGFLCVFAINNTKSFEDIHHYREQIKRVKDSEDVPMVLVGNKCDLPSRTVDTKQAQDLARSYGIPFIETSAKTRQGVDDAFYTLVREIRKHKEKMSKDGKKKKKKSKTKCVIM
# Assay Name: KRAS G12D TR-FRET Assay
# Assay type: binding
# Test Settings: read-out: KRAS G12D Binding IC50
pIC50: −log10 of the molar value. Structures can show the parent of a compound that is named as a salt.
Measurement Kind: pIC50

Molecule	pIC50
C[C@@]12CCCN(C1)c1nc(OC[C@@]34CCCN3C[C@H](F)C4)nc3c(F)c(ccc13)-c1cc(O)cc3ccc(F)c(c13)CCC(F)C(=O)N2 (mixture of isomers) [Example 17, 2,2,2-trifluoroacetate salt]	7.96
O=C1OCCCc2c(Cl)cc3[nH]ncc3c2-c2c(F)cc3c(nc(OC[C@@]45CCCN4C[C@H](F)C5)nc3c2F)N2CCOC[C@H](C2)O1 [Example 187]	8.40
O=C1N[C@@H]2CC[C@H](O)CN(C2)c2nc(OC[C@@]34CCCN3C[C@H](F)C4)nc3c(F)c(ncc23)-c2c(c(Cl)cc3[nH]ncc23)CCCO1 (racemic)	8.15
Fc1c2ncc3c(nc(OC[C@@]45CCCN4C[C@H](F)C5)nc13)N1CCO[C@@H](COCC(F)(F)CCc3c(Cl)cc4[nH]ncc4c3-2)C1	7.48
O=C1OCCCc2c(Cl)cc3[nH]ncc3c2-c2ncc3c(nc(OC[C@@]45CCCN4C[C@H](F)C5)nc3c2F)N2CC[C@@H]3CCN1[C@@H]3C2	6.54

[A] Cc1cc2[nH]ncc2c2c1CCC[C@H](F)C(=O)N(C)[C@@H]1CCCN(C1)c1nc(OC[C@@]34CCCN3C[C@H](F)C4)nc3c(F)c-2ncc13
[B] O=C1N[C@@H]2CCCCN(C2)c2nc(OC[C@@]34CCCN3C[C@H](F)C4)nc3c(F)c(ncc23)-c2c(c(Cl)cc3[nH]ncc23)CCCO1
Query: Which value of pIC50 is smaller, the one for A or the one for B ? Output the label that corresponds to your choice.
Reply: A
(A: 8.00, B: 8.40)

[P] Cc1c2ncc3c(nc(OCC45CCC(CC4)O5)nc13)N1CCC[C@](C)(C1)NC(=O)CCCc1c(F)ccc3cc(O)cc-2c13
[Q] Cc1cc2[nH]ncc2c2c1CCCOC(=O)O[C@]1(C)COCCN(C1)c1nc(OC[C@@]34CCCN3C[C@H](F)C4)nc3c(F)c-2ncc13
[R] Fc1c2ncc3c(nc(OC[C@@]45CCCN4C[C@H](F)C5)nc13)N1CCCC(C1)c1cnn(n1)C/C=C/c1c(Cl)cc3[nH]ncc3c1-2 (some centres unmarked)
[S] C[C@@H](Oc1nc2c3cnc(c(F)c3n1)-c1c(c(Cl)cc3[nH]ncc13)CCCOC(=O)O[C@@H]1COCCN2C1)[C@@H]1CCCN1C
Query: With regard to pIC50, arrange the entries in ascending order, please. Rank the items, then write their labels in that order.
Reply: P, R, S, Q
(P: 6.80, R: 7.22, S: 7.77, Q: 8.40)

[P] O=C1OCCCc2c(Cl)cc3[nH]ncc3c2-c2ncc3c(nc(OC[C@@]45CCCN4C[C@H](F)C5)nc3c2F)N2CCCC[C@](CF)(C2)O1
[Q] CN(C)CC1(COc2nc3c4cc(F)c(c(F)c4n2)-c2c(c(Cl)cc4[nH]ncc24)CCCOC(=O)O[C@@H]2COCCN3C2)CC1 [Example 306]
[R] Cc1cc2[nH]ncc2c2c1CCCn1ccc(n1)[C@H]1CCCN(C1)c1nc(OC[C@@]34CCCN3C[C@H](F)C4)nc3c(F)c-2ncc13
[S] CN1CCC[C@H]1COc1nc2c3cnc(c(F)c3n1)-c1c(c(Cl)cc3[nH]ncc13)CCCOC(=O)O[C@]1(CF)COCCN2C1
Query: Output the entries ranked by pIC50 from maximum down to minimum. Write the labels in rank order as requested.
Reply: R, P, S, Q
(R: 8.70, P: 8.40, S: 8.15, Q: 6.16)

---

# System: GDP-bound KRAS protein (aa 1-169), containing both G12D and C118A amino acid substitutions (Homo sapiens (Human), UniProt P01116, C118A/G12D)
# Assay Name: KRAS G12D Coupled Nucleotide Exchange Assay
# Type: biochemical
# Test Settings: read-out: KRAS G12D Coupled Exchange IC50
Measurement Kind: IC50 (nM)

These solved cases illustrate the format of a correct answer.
Compound	IC50 / nM
Cc1cc2[nH]ncc2c2c1CCCOC(=O)CC1CCCN(C1)c1nc(OC[C@@]34CCCN3C[C@H](F)C4)nc3c(F)c-2ncc13 (some centres unmarked) [Example 39]	8
Fc1c2ncc3c(nc(OC[C@@]45CCCN4C[C@H](F)C5)nc13)N1CCCC[C@@H](C1)c1cnn(n1)CCCc1c(Cl)cc3[nH]ncc3c1-2 [Example 295]	1080
Cc1c2ncc3c(nc(OCC(C)(C)O)nc13)N1CCC[C@](C)(C1)NC(=O)CCCc1c(F)ccc3cc(O)cc-2c13 [Example 26]	109

[A] C[C@@]12COCCN(C1)c1nc(OC[C@H]3CC[C@@H]4COCCN43)nc3c(F)c(ncc13)-c1c(c(Cl)cc3[nH]ncc13)CCCOC(=O)O2 [Example 308]
[B] C[C@@]12CCCN(C1)c1nc(OC[C@@]34CCCN3C[C@H](F)C4)nc3c(F)c(ncc13)-c1cc(O)cc3ccc(F)c(c13)CCCCC(=O)N2 [Example 47]
[C] N#Cc1cc(Cl)c2c(c1)-c1ncc3c(nc(OC[C@@]45CCCN4C[C@H](F)C5)nc3c1F)N1CCOC[C@H](C1)OC(=O)OCCC2 [Example 216]
[D] CN(C)CC1(COc2nc3c4cnc(c(F)c4n2)-c2c(c(Cl)cc4[nH]ncc24)CCCOC(=O)O[C@@]2(C)COCCN3C2)CC1 [Example 332]
[E] O=C1OCCCc2c(Cl)cc3[nH]ncc3c2-c2ncc3c(nc(OC[C@@]45CCCN4C[C@H](F)C5)nc3c2F)N2C[C@H]3C[C@H]3[C@H](C2)O1 (racemic) [Example 179]
Query: Arrange these compounds by their IC50, starting with the largest number. # format: label list in the order the request specifies
Reply: D, C, E, A, B
(D: 2110 nM, C: 55 nM, E: 5 nM, A: 3 nM, B: 2 nM)

[I] Fc1c2ncc3c(nc(OC[C@@]45CCCN4C[C@H](F)C5)nc13)N1CCCO[C@@H](COCCCCc3c(Cl)cc4[nH]ncc4c3-2)C1 [Example 140]
[II] Cc1cc2[nH]ncc2c2c1CCCOC(=O)O[C@]1(C)COCCN(C1)c1nc(OC[C@@]34CCCN3C[C@H](F)C4)nc3c(F)c-2ncc13 [Example 190]
[III] Cc1cc2[nH]ncc2c2c1CCCOC(=O)OC1CC[C@@H]3CC[C@H]1N3c1nc(OC[C@@]34CCCN3C[C@H](F)C4)nc3c(F)c-2ncc13 (racemic) [Example 96]
[IV] O=C1OCCCc2c(Cl)cc3[nH]ncc3c2-c2ncc3c(nc(OC[C@@]45CCCN4C[C@H](F)C5)nc3c2F)N2CC[C@@H]3CCN1[C@@H]3C2 [Example 176]
Query: Arrange these compounds by their IC50, starting with the largest number. Provide the labels, sequenced as the question asks.
Reply: IV, III, I, II
(IV: 179 nM, III: 54 nM, I: 4 nM, II: 2 nM)

[1] Fc1c2ncc3c(nc(OC[C@@]45CCCN4C[C@H](F)C5)nc13)N1CCC[C@@H](Cc3ncc(o3)CCc3c(Cl)cc4[nH]ncc4c3-2)C1 [Example 231]
[2] O=C1OCCc2c(Cl)cc3[nH]ncc3c2-c2ncc3c(nc(OC[C@@]45CCCN4C[C@H](F)C5)nc3c2F)N2CCCCC(CO1)C2 (some centres unmarked) [Example 222]
[3] Cc1cc2[nH]ncc2c2c1CCCOC(=O)N[C@@]1(C)CCCCN(C1)c1nc(OC[C@@]34CCCN3C[C@H](F)C4)nc3c(F)c-2ncc13 [Example 293]
[4] Cc1cc2[nH]ncc2c2c1CCCOC(=O)O[C@H]1CN(CC[C@H]1C)c1nc(OC[C@@]34CCCN3C[C@H](F)C4)nc3c(F)c-2ncc13 [Example 94]
Query: Number of compounds to sort: 4. Sort criterion: IC50, ascending. Give the labels in the order requested.
Reply: 2, 1, 4, 3

[A] Cc1cc2[nH]ncc2c2c1C/C=C\COC[C@@H]1CCCN(C1)c1nc(OC[C@@]34CCCN3C[C@H](F)C4)nc3c(F)c-2ncc13 [Example 131]
[B] O=C1OCCCc2c(F)cc3[nH]ncc3c2-c2ncc3c(nc(OC[C@@]45CCCN4C[C@H](F)C5)nc3c2F)N2CCOC[C@H](C2)O1 [Example 208]
[C] Fc1cc2[nH]ncc2c2c1CCCCOC[C@@H]1CCCCN(C1)c1nc(OC[C@@]34CCCN3C[C@H](F)C4)nc3c(F)c-2ncc13 [Example 239]
Query: Please list these in order of increasing IC50. Thank you! # list labels per requested ordering
Reply: B, A, C

[I] O=C1OCCCc2c(Cl)cc3[nH]ncc3c2-c2ncc3c(nc(OC[C@@]45CCCN4C[C@H](F)C5)nc3c2F)N2CCC[C@](CF)(C2)O1 [Example 336]
[II] Cc1cc2[nH]ncc2c2c1CCCOC(=O)O[C@@H]1CCCN(C1)c1nc(OC[C@@]34CCCN3C[C@H](F)C4)nc3c(F)c-2ncc13 [Example 38, bis(2,2,2-trifluoroacetate)]
Query: For the pair I and II , which entry has the numerically smaller recorded IC50? Record your answer as the label of the chosen record.
Reply: II

// data source = patent US20240294551A1
